Value source: PubChem BioAssay (NCATS)

Run description: qHTS of pediatric cancer cell lines to identify multiple opportunities for drug repurposing: Confirmatory screen for Saos-2 cells (AID 1347127); note: nearly all actives have a fitted effect of over 60% in size
Run conditions: Saos-2 osteosarcoma cell viability; series mostly up to 45.9 µM
Records with an inconclusive call do not appear. Active and inactive are the calls of the source. Calls come from the whole dose curve; as a rule, active = well fitted cell-killing curve with a large enough effect; inconclusive = small, poorly fitted or top-dose-only effect, or effect the other way; inactive = no such curve, though single readings can be large or run the other way.
Select the matching outcome among active, inactive

Record request — test call for CC1(C)S[C@H]2[C@H](NC(=O)[C@@H](N)c3ccc(O)cc3)C(=O)N2[C@@H]1C(=O)O
inactive

Record request — test call for O=C1c2ccccc2-[n+]2ccc3c([nH]c4ccccc43)c21
active

Record request — test call for CC[C@]1(O)C[C@@H]2CN(CCc3c([nH]c4ccccc34)[C@@](C(=O)OC)(c3cc4c(cc3OC)N(C=O)[C@@H]3C45CCN4CC=C[C@](CC)([C@H]45)[C@@H](OC(C)=O)[C@]3(O)C(=O)OC)C2)C1 (some centres undefined)
inactive

Record request — test call for COc1ccc(-c2coc3cc(O)cc(O)c3c2=O)cc1
inactive

Record request — test call for Oc1ccc(C2CCN(c3ccnc4ccccc34)CC2)cc1O
inactive

Record request — test call for CCCCCCCCCCCC1=C(O)C(=O)C=C(O)C1=O
inactive

Record request — test call for NC1=N[C@@]2(c3cc(NC(=O)c4ccc(F)cn4)ccc3F)COC[C@@H]2CS1
inactive

Record request — test call for O=C(NCc1ccncc1)C12C[C@H]3C[C@@H](C1)CC(c1ccc(Cl)cc1)(C3)C2
active

Record request — test call for N[C@@]1(C(=O)O)CS(=O)(=O)[C@H]2[C@H](C(=O)O)[C@H]21
active

Record request — test call for O=c1[nH]cnc2c1ncn2[C@H]1CC[C@@H](CO)O1
inactive

Record request — test call for O=C1C(Cl)=C(NCCN2CCOCC2)C(=O)c2ncccc21
active

Record request — test call for COc1cccc(-c2cc(=O)c3ccccc3o2)c1N
inactive

Record request — test call for CC1(C)O[C@H]2C[C@@H]3[C@H]4CCC5=CC(=O)C=C[C@]5(C)[C@@]4(F)[C@@H](O)C[C@]3(C)[C@]2(C(=O)CO)O1
inactive

Record request — test call for COc1cc(N2CCC(N3CCN(C)CC3)CC2)ccc1Nc1ncc(Cl)c(Nc2ccccc2S(=O)(=O)C(C)C)n1
active

Record request — test call for CC(=O)Oc1cc2c(s1)CCN(C(C(=O)C1CC1)c1ccccc1F)C2 (centres undefined)
inactive

Record request — test call for CC(=O)O[C@]1(C(C)=O)CC[C@@H]2[C@@H]3C[C@H](C)C4=CC(=O)CC[C@]4(C)[C@H]3CC[C@@]21C
inactive

Record request — test call for O=C(Nc1cccc(Br)c1)c1cccc(S(=O)(=O)N2CCCCCC2)c1
inactive

Record request — test call for CC(=O)Nc1ccc([C@H](C)C(=O)Nc2ncc(C(C)C)s2)cc1
active

Record request — test call for O=C1NC(=O)C(=Cc2ccc3c(c2)OC(F)(F)O3)S1
inactive

====

Run description: qHTS of pediatric cancer cell lines to identify multiple opportunities for drug repurposing: Confirmatory screen for SK-N-MC cells (AID 1347111);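 note: potency is the fitted concentration of half-maximal effect; cells exposed to compound for 48 h before the readout; nearly all actives have a fitted effect of over 70% in size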
Run conditions: SK-N-MC cell viability; series mostly up to 45.9 µM
Records with an inconclusive call do not appear. Activity calls are given as the source filed them. The call rests on the fitted dose curve; in most records, active means well fitted cell-killing curve with a large enough effect; inconclusive means small, poorly fitted or top-dose-only effect; inactive means no such curve, though single readings can be large or run the other way.
For each record, write down the corresponding Potency.

Identify Potency associated with the compound CO[C@H]1C(=O)[C@]2(C)[C@@H](OC)C[C@H]3OC[C@@]3(OC(C)=O)[C@H]2[C@H](OC(=O)c2ccccc2)[C@]2(O)C[C@H](OC(=O)[C@H](O)[C@@H](NC(=O)OC(C)(C)C)c3ccccc3)C(C)=C1C2(C)C
0.0033 µM (active)

Identify Potency associated with the compound COc1ccc(-c2coc3cc(O)cc(O)c3c2=O)cc1
1.04 µM (active)

Identify Potency associated with the compound Oc1ccc(C2CCN(c3ccnc4ccccc34)CC2)cc1O
18.5 µM (active)

Identify Potency associated with the compound COc1cc2ncnc(Nc3ccc(F)c(Cl)c3)c2cc1OCCCN1CCOCC1
33.9 µM (active)

Identify Potency associated with the compound CC(C)n1nc(-c2ccc3oc(N)nc3c2)c2c(N)ncnc21
0.0737 µM (active)

Identify Potency associated with the compound CC(=O)Nc1ccc([C@H](C)C(=O)Nc2ncc(C(C)C)s2)cc1
8.27 µM (active)

Identify Potency associated with the compound O=C(O)c1ccc(-c2cc3cccnc3c(-c3ccc4nonc4c3)n2)cc1
2.33 µM (active)

Identify Potency associated with the compound CN[C@@H](C)C(=O)N[C@H]1CN(C(=O)CC(C)C)CC[C@H]2CC[C@@H](C(=O)NC(c3ccccc3)c3ccccc3)N2C1=O
7.37 µM (active)

Identify Potency associated with the compound CNC1CCC(N(Cc2cccc(-c3ccncc3)c2)C(=O)c2sc3c(F)ccc(F)c3c2Cl)CC1 (stereo not given)
11.7 µM (active)

Identify Potency associated with the compound CC1(C)CCC(CN2CCN(c3ccc(C(=O)NS(=O)(=O)c4ccc(NCC5CCOCC5)c([N+](=O)[O-])c4)c(Oc4cnc5[nH]ccc5c4)c3)CC2)=C(c2ccc(Cl)cc2)C1
18.5 µM (active)

====

Run description: Quantitative High-Throughput drug screen in 47 multiple myeloma cell lines against the NCATS MIPE library collection: L363_DSMZ cell viability assay (AID 1918984); note: nearly all actives have a fitted effect of over 40% in size
Run conditions: L363 myeloma viability, CellTiter-Glo ATP luminescence, 48 h; series mostly up to 45.8 µM
Records with an inconclusive call do not appear. Activity calls are given as the source filed them. Calls follow the shape of the dose curve; as a rule, active = well fitted cell-killing curve with a large enough effect; inconclusive = small, poorly fitted or top-dose-only effect, or effect the other way; inactive = no such curve, though single readings can be large or run the other way.
Select the matching outcome among 1.0 for active, 0.0 for inactive

Record request — test call for CN1CCN(CCOc2cc(OC3CCOCC3)c3c(Nc4c(Cl)ccc5c4OCO5)ncnc3c2)CC1
1.0

Record request — test call for COc1cc2c(cc1OC)CN(CCc1ccc(NC(=O)c3cc(OC)c(OC)cc3NC(=O)c3cnc4ccccc4c3)cc1)CC2
0.0

Record request — test call for CN(C)Cc1ccc(-c2nc3cccc4c3n2CCNC4=O)cc1
1.0

Record request — test call for N#Cc1ccc(NC(=O)Nc2ccccc2Br)c2n[nH]nc12
1.0

Record request — test call for CCCCCN(C)CCC(O)(P(=O)(O)O)P(=O)(O)O
0.0

Record request — test call for COc1ccc(-c2cc(=O)c3c(O)cc(O)cc3o2)cc1O
1.0

Record request — test call for NC(=O)c1cccc(-c2cc(Nc3ccc(OC(F)(F)F)cc3)ncn2)c1
1.0

Record request — test call for NS(=O)(=O)c1ccc(NC2=CC(=O)c3ccccc3C2=O)cc1
1.0

Record request — test call for CC(C)(C(=O)NCC(F)(F)C(F)(F)F)C(=O)N[C@@H]1C(=O)Nc2ccccc2-c2ccccc21
1.0

Record request — test call for COc1cc2nc(-c3ccc(N4CCN(C)CC4)cc3)nc(NCCN3CCOCC3)c2cc1OC
1.0

Record request — test call for Nc1ncnc2c1nc(Cl)n2[C@@H]1O[C@H](CO)[C@@H](O)[C@@H]1O
1.0

Record request — test call for CC(C)(C)OC(=O)N[C@H]1CCCCCC=C[C@@H]2C[C@@]2(C(=O)NS(=O)(=O)C2CC2)NC(=O)[C@@H]2C[C@@H](OC(=O)N3Cc4cccc(F)c4C3)CN2C1=O
0.0

Record request — test call for O=C(O)[C@H]1O[C@H](Oc2cc3oc(-c4ccccc4)cc(=O)c3c(O)c2O)[C@H](O)[C@@H](O)[C@H]1O
0.0

Record request — test call for NC1CCC(Nc2nc(Nc3ccc(C(=O)N4CCCCC4)cc3)c3ncn(-c4cccc(F)c4)c3n2)CC1 (stereo not given)
0.0

Record request — test call for O=C(CCCCCCC(=O)Nc1ccccc1)NO
1.0

Record request — test call for CS(=O)(=O)N(Cc1ccco1)CC(O)Cn1c2ccccc2c2ccccc21 (stereo not given)
0.0

Record request — test call for CCCCCCCCCCCC1=C(O)C(=O)C=C(O)C1=O
1.0

Record request — test call for COc1ccc(C2Sc3ccccc3N(CCN(C)C)C(=O)C2OC(C)=O)cc1 (stereo not given)
0.0

Record request — test call for CC1(C)S[C@H]2[C@H](NC(=O)[C@@H](N)c3ccc(O)cc3)C(=O)N2[C@@H]1C(=O)O
1.0

Record request — test call for CC(C)OC(=O)C(C)(C)Oc1ccc(C(=O)c2ccc(Cl)cc2)cc1
0.0

====

Run description: qHTS of pediatric cancer cell lines to identify multiple opportunities for drug repurposing: Primary screen for SK-N-MC cells (AID 1347093)
Run conditions: SK-N-MC viability, CellTiter-Glo luminescence, 48 h; series mostly up to 46 µM
Records with an inconclusive call do not appear. The source made the active and inactive calls. The call rests on the fitted dose curve; in most records, active means well fitted cell-killing curve with a large enough effect; inconclusive means small, poorly fitted or top-dose-only effect; inactive means no such curve, though single readings can be large or run the other way.
Select the matching outcome among Y for active, N for inactive

Record request — test call for NC[C@@H]1O[C@@H](O[C@H]2[C@@H](O)[C@H](O[C@@H]3[C@@H](O)[C@@H](N)C[C@H](N)[C@H]3O[C@H]3O[C@H](CN)[C@@H](O)[C@@H](O)[C@H]3N)O[C@H]2CO)[C@H](N)[C@@H](O)[C@@H]1O
N

Record request — test call for CCN(CC)CCNC(=O)c1ccc(N)cc1
N

Record request — test call for CCOC(CN1C(=O)[C@](CC(=O)Nc2ccc(C)cc2)(NC(=O)Nc2ccc(C)cc2)c2ccccc21)OCC
Y

Record request — test call for O=C1c2ccccc2-[n+]2ccc3c([nH]c4ccccc43)c21
Y

Record request — test call for COc1cc2c(cc1OC)CN(CCc1ccc(NC(=O)c3cc(OC)c(OC)cc3NC(=O)c3cnc4ccccc4c3)cc1)CC2
Y

Record request — test call for O=c1cc(CN2CCOCC2)occ1OCCCCCSc1ccnc2cc(C(F)(F)F)ccc12
Y

Record request — test call for CC(=O)N(C)C1(c2ccccc2)CCN(CCC[C@]2(c3ccc(Cl)c(Cl)c3)CCCN(C(=O)c3ccccc3)C2)CC1
Y

Record request — test call for O=C(O)Cc1cccc2ccccc12
N

Record request — test call for Cc1ccc(C(C)(O)c2nc3ccccc3s2)c(C)c1 (centres undefined)
Y

Record request — test call for CC(=O)N[C@@H](CS)C(=O)O
N

Record request — test call for O=C(O)C=Cc1ccc(O)c(O)c1
Y

Record request — test call for C[N+]1(C)[C@@H]2CC(OC(=O)[C@H](CO)c3ccccc3)C[C@H]1[C@H]1O[C@@H]12 (some centres undefined)
N

Record request — test call for COc1ccc(-n2c(C)c([N+](=O)[O-])c3ccc(O)cc32)cc1
Y

Record request — test call for CC(C)OC(=O)C(C)(C)Oc1ccc(C(=O)c2ccc(Cl)cc2)cc1
Y

Record request — test call for COc1ccc(-c2cc(=O)c3c(O)cc(O)cc3o2)cc1O
Y

Record request — test call for O=c1c(-c2ccc(O)cc2)coc2cc(OC3O[C@H](CO)[C@H](O)[C@H](O)[C@H]3O)cc(O)c12 (some centres undefined)
Y

Record request — test call for Clc1ccc(C(c2ccc(Cl)cc2)n2cc[n+](CC(OCc3ccc(Cl)cc3Cl)c3ccc(Cl)cc3Cl)c2)cc1 (centres undefined)
Y

Record request — test call for NC(CO)(CO)CCc1ccc(Sc2cccc(OCc3ccccc3)c2)cc1Cl
Y

Record request — test call for Cc1c[nH]c(C=C2C(=O)Nc3ccccc32)c1CCC(=O)O
N
